Source: patent US10501479B2

- Assay Overview: Animal PK study in mouse via i.v., p.o. and s.c. administration
- Format: in vivo
- Test Parameters: plasma, po, 10 mg/kg, p.o., read-out: PK t1/2 p.o.
- Experimental: All treated animals received a single dose of a test compound (either through i.v., p.o., or s.c. administration) according to the regimen shown in the following table: […] For i.v. and s.c dose groups, appropriate amount of test compound was dissolved in 1% DMSO (increase to 5% maximum if necessary), 99% of 20% HP-β-Cyclodextron (w/v). […] All plasma samples were added to acetonitrile for protein precipitation and quantitatively analyzed by LC-MS/MS.
Overview of reported half-life across a group of compounds:
Your answer should be a plain number; it is taken to be in h.

Compound	Measurement Type	Result
CC(NC(=O)Nc1ccc(S(=O)(=O)Nc2ccc3c(c2)CCN(C)C3)cc1)c1cccc(Cl)c1Cl (stereo not shown) [H1333]	half-life	1.4
COc1ccc([C@@H](C)NC(=O)Nc2ccc(S(=O)(=O)Cc3ccc4c(c3)CCN(C)C4)cc2)c(Cl)c1Cl [H1417]	half-life	1.27
COc1cc(S(=O)(=O)Cc2ccc3c(c2)CCNC3)ccc1NC(=O)NC(C)c1cccc(Cl)c1Cl.Cl (stereo not shown) [H1415]	half-life	3.04

Kindly note the recorded half-life for CC(NC(=O)Nc1ccc(S(=O)(=O)Cc2ccc3c(c2)CNC3)cc1)c1ccc(F)cc1 (stereo not shown) [H1262] , which is 1.92

* * *

Overview of reported pEC50 across a group of compounds:
- Measured Target: recombinant human ghrelin receptor (HEK293/GRLN) (Homo sapiens, UniProt Q92847)
- Construct: expressed in transfected cells
- Assay Overview: Ghrelin inverse agonist potency (EC50) with IP-1 (IP-One HTRF) assay
- Type: cell-based
- Test Parameters: IP-1 assay, HEK293/GRLN; read-out: Activity EC50 (ghrelin inverse agonist potency)
Bear in mind: pEC50 is minus log10 of a mol/L concentration; give just that figure.

Compound	pEC50
CC(NC(=O)Nc1ccc(S(=O)(=O)Nc2ccc3c(c2)CCN(C)C3)cc1)c1cccc(Cl)c1Cl (stereo not drawn)	8.89
CC(NC(=O)Nc1ccc(S(=O)(=O)Cc2cc3c(cc2F)CNCC3)cc1)c1cccc(Cl)c1Cl (stereo not drawn)	8.19
CC(NC(=O)Nc1ccc(S(=O)(=O)Cc2ccc3c(c2F)CNC3)cc1)c1c(F)cccc1F (stereo not drawn)	7.88
COc1ccccc1C(C)NC(=O)Nc1ccc(S(=O)(=O)Cc2ccc3c(c2)CNC3)cc1F.Cl (stereo not drawn)	7.97
CC(c1ccccc1)N(C)C(=O)Nc1ccc(S(=O)(=O)Cc2ccc3c(c2F)CNC3)cc1 (stereo not drawn)	7.13
C[C@@H](NC(=O)Nc1ccc(S(=O)(=O)Cc2cc3c(s2)CN(C)C3)cc1)c1ccccc1	7.70
C[C@@H](NC(=O)Nc1ccc(S(=O)(=O)Cc2cc(F)c3c(c2)CN(C)C3)cc1)c1ccccc1	7.89
O=C(Nc1ccc(S(=O)(=O)Cc2ccc3c(c2)CNC3)cc1)NC1COc2ccccc21 (stereo not drawn)	6.85
C[C@@H](NC(=O)Nc1ccc(S(=O)(=O)Nc2ccnc(N)n2)cc1)c1cccc(Cl)c1Cl	6.89
COc1cc(S(=O)(=O)Cc2cc3c(cc2F)CNCC3)ccc1NC(=O)NC(C)c1cccc(Cl)c1Cl (stereo not drawn)	7.85

Kindly note the recorded pEC50 for CC(NC(=O)Nc1ccc(S(=O)(=O)Cc2ccc3c(c2)CNC3)cc1)c1cccc(Cl)c1 (stereo not drawn) , which is 8.36

Kindly note the recorded pEC50 for CC(=O)N1CC(NC(=O)Nc2ccc(S(=O)(=O)Cc3ccc4c(c3)CNC4)cc2)c2ccccc21 (stereo not drawn) , which is 5.08

Kindly note the recorded pEC50 for COc1cc(S(=O)(=O)Cc2ccc3c(c2)CN(C)C3)ccc1NC(=O)NC(C)c1ccccc1F (stereo not drawn) , which is 8.47

Kindly note the recorded pEC50 for CC(NC(=O)Nc1ccc(S(=O)(=O)Cc2ccc3c(c2)CNC3)cc1)c1c(F)cccc1F (stereo not drawn) , which is 8.14

Kindly note the recorded pEC50 for COc1c(CS(=O)(=O)c2ccc(NC(=O)NC(C)c3cccc(Cl)c3Cl)cc2)ccc2c1CCN(C)C2 (stereo not drawn) , which is 8.96

Kindly note the recorded pEC50 for CC(=O)N1CC(NC(=O)Nc2ccc(S(=O)(=O)Cc3ccc4c(c3)CN(C)C4)cc2)c2ccccc21 (stereo not drawn) , which is 5.06

* * *

Overview of reported pEC50 across a group of compounds:
- Measured Target: recombinant human ghrelin receptor (HEK293/GRLN) (Homo sapiens, UniProt Q92847)
- Construct: expressed in transfected cells
- Assay Overview: Ghrelin inverse agonist potency (EC50) with IP-1 (IP-One HTRF) assay
- Type: cell-based
- Test Parameters: inverse agonist potency, IP-1 assay; read-out: EC50 (Activity)
Bear in mind: pEC50 is minus log10 of a mol/L concentration; give just that figure.

Please review the following examples before continuing.
Compound	Measurement Type	Result
CCN1CCc2cc(NS(=O)(=O)c3ccc(NC(=O)N[C@@H](C)c4ccc(OC)c(Cl)c4Cl)cc3)ccc2C1	pEC50	7.86
C[C@H](NC(=O)Nc1ccc(S(=O)(=O)Nc2ccc(CCO)cc2)cc1)c1cccc(Cl)c1Cl	pEC50	6.93
CC(NC(=O)Nc1ccc(S(=O)(=O)Cc2ccc3c(c2)CN(C)C3)cc1)C1CC1 (centres unmarked)	pEC50	6.45
CN(C)C(C)(C)Cc1ccc(NS(=O)(=O)c2ccc(NC(=O)NCc3cccc(Cl)c3Cl)cc2)cc1	pEC50	8.60

// assay recombinant human ghrelin receptor (HEK293/GRLN) (Homo sapiens, UniProt Q92847), entry CC(NC(=O)Nc1ccc(S(=O)(=O)Cc2ccc3c(c2)CN(C)C3)cc1)c1ccccc1 (centres unmarked) , pEC50 value = 7.77

* * *

- Assay Overview: Metabolic stability in mouse liver microsomes
- Assay type: in vitro ADME
Measurement Type: Metabolic Stability Study M = mouse (µL/min/mg)
Your answer should be a plain number; it is taken to be in µL/min/mg.

Please review the following examples before continuing.
Compound	Metabolic Stability Study M = mouse / µL/min/mg
COc1ccc(C(C)NC(=O)Nc2ccc(S(=O)(=O)Cc3ccc4c(c3)CNC4)cc2)c2ccccc12 (stereo not shown)	22.9
COc1cc(S(=O)(=O)Cc2ccc3c(c2)CCNC3)ccc1NC(=O)NC(C)c1cccc(Cl)c1Cl.Cl (stereo not shown)	12.8
COc1cc(S(=O)(=O)Cc2ccc3c(c2)CNC3)ccc1NC(=O)NC(C)c1cccc(Cl)c1Cl.Cl (stereo not shown)	38.8
C[C@H](NC(=O)Nc1ccc(S(=O)(=O)Cc2ccc(CO)cc2)cc1)c1cccc(Cl)c1Cl	108.7

Kindly note the recorded Metabolic Stability Study M = mouse for CC(NC(=O)Nc1ccc(S(=O)(=O)Cc2ccc3c(c2)CNC3)cc1)c1ccccc1Cl.Cl (stereo not shown) , which is 23

Kindly note the recorded Metabolic Stability Study M = mouse for COc1cc(S(=O)(=O)Cc2ccc3c(c2)CC(C)NC3)ccc1NC(=O)NC(C)c1ccccc1 (stereo not shown) , which is 16.4

Kindly note the recorded Metabolic Stability Study M = mouse for CC(c1cccc(Cl)c1Cl)N(O)C(=O)Nc1ccc(S(=O)(=O)Cc2ccc3c(c2)CNC3)cc1.O=C(O)C(F)(F)F (stereo not shown) , which is 16.0

Kindly note the recorded Metabolic Stability Study M = mouse for CC(C)(N)Cc1ccc(CS(=O)(=O)c2ccc(NC(=O)NCc3cccc(Cl)c3Cl)cc2)cc1 , which is 125.4

Kindly note the recorded Metabolic Stability Study M = mouse for CN1Cc2ccc(CS(=O)(=O)c3ccc(NC(=O)NCc4ccccc4)cc3)cc2C1 , which is 43.7

Kindly note the recorded Metabolic Stability Study M = mouse for CC1c2ccccc2CCN1C(=O)Nc1ccc(S(=O)(=O)Cc2ccc3c(c2)CNC3)cc1 (stereo not shown) , which is 32

Kindly note the recorded Metabolic Stability Study M = mouse for C[C@@H](NC(=O)Nc1ccc(S(=O)(=O)Cc2cc(F)c3c(c2)CN(C)C3)cc1)c1ccccc1 , which is 304.3

* * *

Overview of reported IC50 across a group of molecules:
- Measured Target: GHSR-1a (HEK293/GHSR1a cell line) (Homo sapiens, UniProt Q92847)
- Construct: expressed in transfected cells; host or cells: HEK293/GHSR1a cell line
- Sequence (Q92847 whole entry): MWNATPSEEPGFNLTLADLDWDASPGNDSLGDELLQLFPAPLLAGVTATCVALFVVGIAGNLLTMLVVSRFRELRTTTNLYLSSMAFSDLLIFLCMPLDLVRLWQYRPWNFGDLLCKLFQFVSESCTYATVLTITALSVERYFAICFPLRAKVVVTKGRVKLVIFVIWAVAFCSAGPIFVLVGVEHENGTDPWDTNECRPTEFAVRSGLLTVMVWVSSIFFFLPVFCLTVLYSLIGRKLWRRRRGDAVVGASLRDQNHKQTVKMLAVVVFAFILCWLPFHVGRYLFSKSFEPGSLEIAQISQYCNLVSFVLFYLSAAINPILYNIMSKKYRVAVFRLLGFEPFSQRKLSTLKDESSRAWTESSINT
- Assay Overview: Ghrelin antagonist potency (IC50) with calcium FLIPR assay, ghrelin 10 nM
- Format: cell-based
- Test Parameters: ghrelin antagonist potency, read-out: Activity IC50
Your answer should be a plain number; it is taken to be in nM.

Molecule	IC50 [nM]
NC(=O)C(NC(=O)Nc1ccc(S(=O)(=O)Cc2ccc3c(c2)CNC3)cc1)c1ccccc1 (centres unmarked) [H1457]	16600

Here is another molecule to look at.
Kindly note the recorded IC50 for C[C@@H](NC(=O)Nc1ccc(S(=O)(=O)Cc2ccc3c(c2)C(F)CNC3)cc1)c1cccc(Cl)c1Cl (some centres unmarked) [H1537] , which is 69
